B1: glmS ribozyme (parent)
chain: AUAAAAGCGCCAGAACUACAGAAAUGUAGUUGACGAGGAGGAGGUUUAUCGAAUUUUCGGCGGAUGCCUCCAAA

Variants of: B1
RUN DESCRIPTION: kcat; higher = faster cleavage; RNA array
RUN PARAMETERS: with glucosamine-6-phosphate
Fewer inactive variants are shown than the library holds.
Values of kcat greater than or equal to 0.0002 s⁻¹ map to class 1; values below map to class 0.

Illustrative cases are given below, each with its answer.
-- ask Is it the case that AUAAAAGCGCCUGAACUACAGAAAUGUAGUUGACGAGGAGGAGGUUUAUCGAAUUUUCGGCGGUUGCCUCCAAA [A12U A64U] has kcat reaching or exceeding 0.0002 s⁻¹?
-- reply class 1

-- ask Moving on to the next variant: AUAAAAGCGCUAGAACUACAGAAAUGUAGUUGACGAGGAGGAGGUUCAUCGAAUUUUCGGCGGAUGCCUCCAAA [C11U U47C]
-- reply class 0

-- ask Please do the same for AUAAAAGCGCCAGAACUACAGAAAUGUAGUUGACGAGGAGGAGGUUUAUCGAAUUUUCGGCGAAUGCCUACAAA [G63A C70A] as well.
-- reply class 0

-- ask Now give it for AUAAAAGCGCCCGAACUACAGAAAUGUAGUUGACGAGGGGGAGGUUUAUCGAAUUUUCGGCGGAUGCCUCCAAA [A12C A39G] too.
-- reply class 1

-- ask Next up: AUAAAAGCGCCAGCACUACAGAAAUGUAGUUGACGAGGAGGAGGUUUAUUGAAUUUUCGGCGGAUGCCUCCAAA [A14C C50U]
-- reply class 0

Further cases:
-- ask Exam item: decide whether the reported kcat for AUAAAAGCGCCAGACCUACAGAAAUGUAGUUGACGAGGAGGAGGUAUAUCGAAUUUUCGGCGGAUGCCUCCAAA [A15C U46A] is at least 0.0002 s⁻¹.
-- reply class 1

-- ask Next variant up: AUAAAAGCGCCGGAACUACAGAAAUGUAGUUGACGAGGAGGAGGUUUAUCGAAUUUUCGGCCGAUGCCUCCAAA [A12G G62C]
-- reply class 0
